System: Aspergillus flavus
Assay: Antifungal activity against Aspergillus flavus ATCC MYA-3631 measured after 48 hrs by CLSI M38-A2 protocol based method
Format: functional
Settings: ATCC MYA-3631, 48 h
Kindly state MIC for each of the entries shown.

Query: // Input: CCCCCCCCCCCCCCNCC(O)(Cn1cncn1)c1ccc(F)cc1F (stereo not drawn) . Output its MIC only.
Response: > 69.5 µM

Query: Annotate the compound CCCCCCN(CCCCCC)CC(O)(Cn1cncn1)c1ccc(F)cc1F (stereo not drawn) with its measured MIC.
Response: > 74.1 µM

Query: For the compound "CC[C@H](C)C[C@H](C)CCCCCCCCC(=O)N[C@H]1C[C@@H](O)[C@@H](NCCN)NC(=O)[C@@H]2[C@@H](O)CCN2C(=O)[C@H]([C@H](O)CCN)NC(=O)[C@H]([C@H](O)[C@@H](O)c2ccc(O)cc2)NC(=O)[C@@H]2C[C@@H](O)CN2C(=O)[C@H]([C@@H](C)O)NC1=O" , report MIC.
Response: > 25.8 µM

Query: Assign MIC to the following record: CCCCCCCCCCCCNCC(O)(Cn1cncn1)c1ccc(F)cc1F (stereo not drawn)
Response: 18.5 µM

Query: Give the reported value of MIC for this record: CCCCCCCCCCCCCCCCNCC(O)(Cn1cncn1)c1ccc(F)cc1F (stereo not drawn)
Response: > 65.4 µM

Query: Quick one: give measured MIC for CCCCCCCCN(CCCCCCCC)CC(O)(Cn1cncn1)c1ccc(F)cc1F (stereo not drawn)
Response: > 65.4 µM

Query: Using the record for CCCCCOCCCCCCNCC(O)(Cn1cncn1)c1ccc(F)cc1F (stereo not drawn) , state its measured MIC.
Response: > 73.7 µM

Query: Supply measured MIC of OC(CNC1CCCCCCC1)(Cn1cncn1)c1ccc(F)cc1F (stereo not drawn) in your reply.
Response: 85.8 µM

Query: Quickly give me recorded MIC for CCCCCCCCNCC(O)(Cn1cncn1)c1ccc(F)cc1F (stereo not drawn)
Response: > 85.4 µM

Query: Tell me MIC reported for CCCCCCCCCCNCC(O)(Cn1cncn1)c1ccc(F)cc1F (stereo not drawn)
Response: 19.8 µM

Query: Return value of MIC for input CCCCCCNCC(O)(Cn1cncn1)c1ccc(F)cc1F (stereo not drawn) , no commentary.
Response: > 92.3 µM

Query: State, in one line, measured MIC of CC(C)c1ccc(NCC(O)(Cn2cncn2)c2ccc(F)cc2F)cc1 (stereo not drawn)
Response: 84 µM

Query: Supply reported MIC belonging to this compound: OCCCCCCNCC(O)(Cn1cncn1)c1ccc(F)cc1F (stereo not drawn)
Response: > 88.3 µM

* * *

Test: Hemolytic activity in mouse RBC at 62.5 ug/ml after 1 hr relative to control
Assay type: ADME, cell-based, Erythrocyte
Conditions: mouse red blood cells (erythrocytes), read-out: Activity
readout kind: hemolysis at 1 h, 62.5 ug/ml (%)
Provide only the numeric value, understood in %.

Query: Fill in reported hemolysis at 1 h, 62.5 ug/ml for this entry: CCCCCCCCNCC(O)(Cn1cncn1)c1ccc(F)cc1F (stereo not given)
Response: 78

Query: State its hemolysis at 1 h, 62.5 ug/ml: CCCCCCCCCCCCCCNCC(O)(Cn1cncn1)c1ccc(F)cc1F (stereo not given)
Response: 77

Query: Fill in hemolysis at 1 h, 62.5 ug/ml for record CCCCCCCCCCNCC(O)(Cn1cncn1)c1ccc(F)cc1F (stereo not given)
Response: 100

Query: Consider the compound CCCCCCCCCCCCNCC(O)(Cn1cncn1)c1ccc(F)cc1F (stereo not given) . State its measured hemolysis at 1 h, 62.5 ug/ml.
Response: 98

Query: Give the reported hemolysis at 1 h, 62.5 ug/ml for this compound. CCCCCCCCCCCCCCCCNCC(O)(Cn1cncn1)c1ccc(F)cc1F (stereo not given)
Response: 8

* * *

System: Nakaseomyces glabratus
Test: Antifungal activity against Candida glabrata ATCC 2001 measured after 48 hrs by CLSI M27-A3 protocol based method
Format: functional, CBS 138
Conditions: Nakaseomyces glabratus, CBS 138, 48 h; read-out: MIC
Kindly state MIC for each of the entries shown.

Query: Give a short answer stating reported MIC for CCCCCOCCCCCCNCC(O)(Cn1cncn1)c1ccc(F)cc1F (centres undefined) .
Response: 9.2 to 36.7 µM

Query: Quickly give me recorded MIC for CCCCCCCCCCCCNCC(O)(Cn1cncn1)c1ccc(F)cc1F (centres undefined)
Response: 2.3 µM

Query: Supply recorded MIC for CCCCCCCCN(CCCCCCCC)CC(O)(Cn1cncn1)c1ccc(F)cc1F (centres undefined) here.
Response: 65.4 µM

Query: Using the record for CCCCCCCCNCC(O)(Cn1cncn1)c1ccc(F)cc1F (centres undefined) , state its measured MIC.
Response: 2.7 to 21.3 µM

Query: Specify measured MIC for "C[C@@H]1[C@H](O)[C@@H](C)/C=C/C=C/C=C/C=C/C=C/C=C/C=C/[C@H](O[C@@H]2O[C@H](C)[C@@H](O)[C@H](N)[C@@H]2O)C[C@@H]2O[C@](O)(C[C@@H](O)C[C@@H](O)[C@H](O)CC[C@@H](O)C[C@@H](O)CC(=O)O[C@H]1C)C[C@H](O)[C@H]2C(=O)O" .
Response: 2.1 µM

Query: Note MIC for the compound shown: "CC[C@H](C)C[C@H](C)CCCCCCCCC(=O)N[C@H]1C[C@@H](O)[C@@H](NCCN)NC(=O)[C@@H]2[C@@H](O)CCN2C(=O)[C@H]([C@H](O)CCN)NC(=O)[C@H]([C@H](O)[C@@H](O)c2ccc(O)cc2)NC(=O)[C@@H]2C[C@@H](O)CN2C(=O)[C@H]([C@@H](C)O)NC1=O"
Response: 0.05 µM

Query: Answer with the recorded MIC of CCCCCCCCCCCCCCNCC(O)(Cn1cncn1)c1ccc(F)cc1F (centres undefined) only.
Response: 2.2 to 4.3 µM

Query: Using known records, supply MIC for CCCCCCNCC(O)(Cn1cncn1)c1ccc(F)cc1F (centres undefined)
Response: 23 to 46.1 µM

Query: Give the value of MIC reported for the following: CCCCCCN(CCCCCC)CC(O)(Cn1cncn1)c1ccc(F)cc1F (centres undefined)
Response: > 74.1 µM

Query: Give MIC for the following compound: OC(CNC1CCCCCCC1)(Cn1cncn1)c1ccc(F)cc1F (centres undefined)
Response: 85.8 µM

Query: Please report the measured MIC for CCCCCCCCCCCCCCCCNCC(O)(Cn1cncn1)c1ccc(F)cc1F (centres undefined)
Response: 2 to 65.4 µM

Query: Using the record for OCCCCCCNCC(O)(Cn1cncn1)c1ccc(F)cc1F (centres undefined) , state its measured MIC.
Response: > 88.3 µM

Query: Hello, please tell me recorded MIC for this one: CCCCCCCCCCNCC(O)(Cn1cncn1)c1ccc(F)cc1F (centres undefined)
Response: 1.2 to 2.5 µM

Query: Look up and state reported MIC for CC(C)c1ccc(NCC(O)(Cn2cncn2)c2ccc(F)cc2F)cc1 (centres undefined)
Response: 20.9 to 84 µM

* * *

System: Candida albicans
Experiment: Antifungal activity against Candida albicans ATCC 10231 measured after 48 hrs in presence of 10% FBS by CLSI M27-A3 protocol based method
Type: functional
Conditions: Candida albicans, ATCC 10231, 48 h
readout kind: MIC (µg/mL)
State just the number; it will be interpreted in µg/mL.

Query: Please supply the value of reported MIC for the item C[C@@H]1[C@H](O)[C@@H](C)/C=C/C=C/C=C/C=C/C=C/C=C/C=C/[C@H](O[C@@H]2O[C@H](C)[C@@H](O)[C@H](N)[C@@H]2O)C[C@@H]2O[C@](O)(C[C@@H](O)C[C@@H](O)[C@H](O)CC[C@@H](O)C[C@@H](O)CC(=O)O[C@H]1C)C[C@H](O)[C@H]2C(=O)O [AMPHOTERICIN B]
Response: 7.8

Query: Give a short answer stating reported MIC for CCCCCCCCCCNCC(O)(Cn1cncn1)c1ccc(F)cc1F (centres undefined) .
Response: 0.48

Query: Tell me measured MIC for CCCCCCCCCCCCNCC(O)(Cn1cncn1)c1ccc(F)cc1F (centres undefined) please.
Response: 1.95

Query: Indicate the recorded MIC value for this molecule: CCCCCCCCCCCCCCNCC(O)(Cn1cncn1)c1ccc(F)cc1F (centres undefined)
Response: 7.8

* * *

Assay: Hemolytic activity in mouse RBC at 3.9 ug/ml after 1 hr relative to control
Type: ADME, cell-based, Erythrocyte
Settings: mouse red blood cells (erythrocytes), read-out: Activity
Exercise: state measured hemolysis at 1 h, 3.9 ug/ml for each of the molecules provided.
Please state the figure in %; there is no need to write the unit.

Query: Give the value of hemolysis at 1 h, 3.9 ug/ml reported for the following: C[C@@H](c1ncncc1F)[C@](O)(Cn1cncn1)c1ccc(F)cc1F [VORICONAZOLE]
Response: 7

Query: Annotate the molecule CCCCCCCCCCCCCCCCNCC(O)(Cn1cncn1)c1ccc(F)cc1F (stereo unspecified) with its measured hemolysis at 1 h, 3.9 ug/ml.
Response: 3

Query: Report hemolysis at 1 h, 3.9 ug/ml, nothing else, for this molecule: CCCCCCCCCCCCCCNCC(O)(Cn1cncn1)c1ccc(F)cc1F (stereo unspecified)
Response: 10

Query: Give me measured hemolysis at 1 h, 3.9 ug/ml, please, for this molecule: CCCCCCCCNCC(O)(Cn1cncn1)c1ccc(F)cc1F (stereo unspecified)
Response: 2

Query: Answer with the recorded hemolysis at 1 h, 3.9 ug/ml of CCCCCCCCCCNCC(O)(Cn1cncn1)c1ccc(F)cc1F (stereo unspecified) only.
Response: 3

Query: Recall and state the measured hemolysis at 1 h, 3.9 ug/ml for CCCCCCCCCCCCNCC(O)(Cn1cncn1)c1ccc(F)cc1F (stereo unspecified) .
Response: 8

Reference source for all entries: ChEMBL document CHEMBL4118101
